- Read-out: Low-density lipoprotein receptor (LDLR), LDLR (gene 3949)
- Assay Method Text: BSK_CASM3C_LDLR: BioMAP Diversity Plus: CASM3C Assay for Low-density lipoprotein receptor (LDLR) Biomarker Activity (AID 2283045);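 also: LDLR protein level on the cell surface quantified by ELISA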
- Test Settings: primary human coronary artery smooth muscle cells; actives raise or lower the signal
The source made the active and inactive calls. The calls were made as follows: active = hit-call score of the fitted dose curve at least 0.9, where 1 is the maximum; inactive = score below 0.9.
Possible outcomes: Y for active, N for inactive

c1ccc(Nc2ccc3ccccc3c2)cc1; N
C=CCN(CC=C)C(=O)C(Cl)Cl; N
C=CC(=O)OCC(CC)CCCC (stereo not given); N
O=[N+]([O-])C=Cc1ccccc1; Y
O=[N+]([O-])O; N

---

- Read-out: Vascular cell adhesion molecule 1 (VCAM1), VCAM1 (gene 7412)
- Assay Method Text: BSK_4H_VCAM1: BioMAP Diversity Plus: 4H Assay for Vascular cell adhesion molecule 1 (VCAM1) Biomarker Activity (AID 2283033)
- Test Settings: primary human endothelial cells (HUVEC); actives raise or lower the signal
The source made the active and inactive calls. How the source made its calls: active means hit-call score of the fitted dose curve at least 0.9, where 1 is the maximum; inactive means score below 0.9.
Possible outcomes: yes = active, no = inactive

CC(C)COP(=O)(OCC(C)C)OCC(C)C; no
CCC(C)c1cc([N+](=O)[O-])cc([N+](=O)[O-])c1OC(=O)C=C(C)C (stereo unspecified); yes
CCCCCCCCCCCC#N; yes
O=c1c2ccccc2c(=O)c2c1cc(Cl)c1[nH]c3c([nH]c12)c(Cl)cc1c(=O)c2ccccc2c(=O)c13; no
C=CC(=O)OCC(CC)CCCC (stereo unspecified); yes
CC(=O)/C=C/c1ccccc1; no
Nc1ccc(-c2ccc(N)c(N)c2)cc1N; no
O=S(=O)(c1ccccc1)c1ccccc1; no
CC(C)CCCCCCCOP(=O)(Oc1ccccc1)Oc1ccccc1; yes
O=[N+]([O-])C=Cc1ccccc1; yes
O=[N+]([O-])c1ccc(Cl)cc1; no

---

- Assay Method Text: ATG_TCF_b_cat_CIS: Attagene CIS-FACTORIAL HepG2 Assay for human T-Cell-Factor with beta-catenin (TCF/b-cat) (AID 2282965)
- Test Settings: HepG2 TCF/beta-catenin cis-reporter transcription, actives raise or lower the signal
Activity calls are given as the source filed them. Rule for the calls: active = hit-call score of the fitted dose curve at least 0.9, where 1 is the maximum; inactive = score below 0.9.
Possible outcomes: 1 (active), -1 (inactive)

CC(Cc1ccc(C(C)(C)C)cc1)CN1C[C@@H](C)O[C@@H](C)C1 (stereo partly specified); -1
CC(C)[C@@H](C(=O)O[C@@H](C#N)c1cccc(Oc2ccccc2)c1)c1ccc(Cl)cc1; -1
C[C@]12CC[C@H]3[C@@H](CC[C@@]45O[C@@H]4C(O)=C(C#N)C[C@]35C)[C@@H]1CC[C@@H]2O; 1
COC(=O)COc1ccc(Cl)cc1Cl; -1
O=[N+]([O-])c1ccc(Cl)cc1; -1
Oc1ccc(C2(c3ccc(O)cc3)c3ccccc3-c3ccccc32)cc1; -1
O=[N+]([O-])O.O=[N+]([O-])O.[Cd]; -1
BrCBr; -1
CCCCNP(N)(N)=S; -1
O=C=Nc1ccccc1; -1
O=c1c2ccccc2c(=O)c2c1cc(Cl)c1[nH]c3c([nH]c12)c(Cl)cc1c(=O)c2ccccc2c(=O)c13; -1
COc1ccc(CO)cc1; -1
COCC(=O)N(c1c(C)cccc1C)N1CCOC1=O; -1
CCC1CCC(=O)O1 (stereo unspecified); -1
[N-]=[N+]=CC(=O)OC[C@H](N)C(=O)O; -1
CN(C)C(=O)C(c1ccccc1)c1ccccc1; -1
CCC(C)c1cc(C(C)(C)C)cc(-n2nc3ccccc3n2)c1O (stereo unspecified); -1
CC1(C)CC(=O)CC(C)(C)N1[O]; -1
CC(C)(C)C(=O)CCl; -1
CC(=O)C=Cc1ccccc1; -1
CCOC(=O)C1OC1(C)c1ccccc1 (stereo unspecified); -1
N#Cc1cc(I)c(O)c(I)c1; -1
[Cl-].[Cl-].[Cl-].[Yb+3]; -1
O=S(=O)(O)O; -1
Cc1ccccc1CCl; -1
C[N+](C)=CCl; -1
SCc1ccco1; -1
CC(C)CCCCCCCOP(=O)(Oc1ccccc1)Oc1ccccc1; -1
c1cc(OCC2CO2)ccc1Cc1ccc(OCC2CO2)cc1 (stereo unspecified); 1
CN(N=O)c1ccccc1; -1
CCCCCCC1CCOC1=O (stereo unspecified); -1
C[C@]12CCC(=O)C(O)=C1CC[C@@H]1[C@@H]2CC[C@]2(C)C(=O)CC[C@@H]12; -1
CCC(C)(C)O; -1
CN(C)N; -1
CC(C)C#N; -1
Nc1ccccc1C(=O)OCCc1ccccc1; -1
COc1ncc(F)c2nc(S(=O)(=O)Nc3c(F)cccc3F)nn12; -1
CC(O)CN(CC(C)O)CC(C)O (stereo unspecified); -1
CC(=O)c1cc2c(cc1C)C(C)(C)C(C)CC2(C)C (stereo unspecified); 1
CCCCCCCCCCCCCCCC[N+](C)(C)C; 1
O=P(O)(Oc1ccccc1)Oc1ccccc1; -1
